B1: VENTX (parent)
chain: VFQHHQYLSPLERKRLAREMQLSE

# Variants of: B1
# Protocol notes: protein stability index of a GFP-peptide fusion (GPS, HEK-293T) (PSI 1-6); higher = more stable;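 also: lentivirally expressed fusions sorted by FACS into six bins by GFP to DsRed ratio, PSI derived from sequencing read proportions per bin multiplied by bin number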
# Conditions: c terminus: a fixed tail appended
Quantity measured: protein stability index
Would you mind answering with just the numeric figure?

Value lookup for protein stability index; key = `A17K` 2.75

Please do the same for `Q3Y` as well. 2.56

Please do the same for `H5F` as well. 2.96

Please do the same for `M20H` as well. 2.57

Please do the same for `S9A` as well. 2

Please do the same for `E24H` as well. 2.47

Please do the same for `Q21G` as well. 2.51

Please do the same for `L16P` as well. 2.78

Please do the same for `S23N` as well. 2.25

Please do the same for `S9C` as well. 2.17

Please do the same for `L22Q` as well. 2.38

Please do the same for `R15I` as well. 2.09

Please do the same for `P10Q` as well. 2.46

Please do the same for `V1Q` as well. 2.19

Please do the same for `Q6I` as well. 2.17

Please do the same for `L8P` as well. 2.52

Please do the same for `L8I` as well. 3.02

Please do the same for `Q21K` as well. 2.66

Please do the same for `Q6R` as well. 2.47

Please do the same for `E24D` as well. 2.48

Please do the same for `K14H` as well. 1.97

Please do the same for `Q21L` as well. 2.59
